# Tested on: HCV 1b_Huh-Luc/Neo-ET cell line persistently expressing a bicistronic genotype 1b replicon in Huh 7 cells
# procedure.text: HCV replicon assay (luciferase readout)
# Type: cell-based
# cond: Hepatitis C virus, Huh-7, 72 h, read-out: Inhibition of HCV genotype 1b
pEC50: −log10 of the molar value.
measurement.label: pEC50

• CC(C)[C@@H](NC(=O)OC(C)(C)C)C(=O)N1CCC[C@H]1c1ncc(C#Cc2ccc(C#Cc3cnc([C@@H]4CCCN4C(=O)[C@H](NC(=O)OC(C)(C)C)C(C)C)[nH]3)cc2)[nH]1 = < 6.00
• CN1CCN(C(=O)N[C@@H](C(=O)N2CCC[C@H]2c2ncc(-c3ccc(C#Cc4ccc(-c5cnc([C@@H]6CCCN6C(=O)[C@H](NC(=O)C6CC6)c6ccccc6)[nH]5)cc4)cc3)[nH]2)c2ccccc2)CC1 = > 9.00
• COC(=O)N[C@@H](C(=O)N1CCC[C@H]1c1ncc(C#Cc2ccc(-c3ccc(-c4cnc([C@@H]5CCCN5C(=O)[C@@H](c5ccccc5)N5CCCC5)[nH]4)cc3)cc2)[nH]1)c1ccccc1 = > 9.00
• COC(=O)N[C@H](C(=O)N[C@@H](C)c1ncc(-c2ccc(C#Cc3ccc(-c4cnc([C@@H]5CCCN5C(=O)[C@@H](NC(=O)OC)[C@@H](C)O)[nH]4)cc3)cc2)[nH]1)[C@@H](C)O = > 9.00
• COC(=O)N[C@H](C(=O)N1CCC[C@H]1c1ncc(-c2ccc(C#Cc3ccc(-c4cnc([C@@H]5CCCN5C(=O)[C@@H](NC5CCOCC5)C(C)C)[nH]4)cc3)cc2)[nH]1)C(C)C = 8.00 to 9.00
• COC(=O)N[C@@H](C(=O)N1CCC[C@H]1c1ncc(-c2ccc(C#Cc3ccc(-c4cnc([C@@H]5CCCN5C(=O)C5CCCN5C)[nH]4)cc3)cc2)[nH]1)c1ccccc1 (stereo partly drawn) = > 9.00
• COC(=O)N[C@@H](C(=O)N1CCC[C@H]1c1ncc(-c2ccc(C#Cc3ccc(-c4cnc([C@@H]5CCCN5C(=O)[C@@H](c5ccccc5)N5CCOCC5)[nH]4)cc3)cc2)[nH]1)c1ccccc1 = > 9.00
• COC(=O)N[C@@H](C(=O)N1CCC[C@H]1c1ncc(-c2ccc(C#Cc3ccc(-c4cnc([C@@H]5CCCN5C(=O)c5nccn5C)[nH]4)cc3)cc2)[nH]1)c1ccccc1 = > 9.00
• C[C@@H](NC(=O)[C@@H]1CCCN1C(=O)[C@H](NC(=O)OC(C)(C)C)c1ccccc1)c1ccc(C#Cc2cnc([C@@H]3CCCN3C(=O)[C@H](NC(=O)OC(C)(C)C)c3ccccc3)[nH]2)cc1 = 6.00 to 8.00
